test system: IL-1β release upon NLRP3 activation in peripheral blood mononuclear cells (PBMC); assay: PBMC IC50 determination assay: inhibition of IL-1β release upon NLRP3 activation; type: cell-based; conditions: PBMC, PBMC primed with LPS 3 h, compound 30 min, stimulated with ATP (5 mM) or nigericin (10 μM) 1 h; IL-1β by ELISA (Protocol A) or HTRF (Protocol B)
METRIC_NAME: IC50

Go through the list and state IC50 for each entry.
1. CC(C)c1nn(CC(=O)Nc2ncco2)c(=O)c2cn(C(C)C)nc12
2. CC(C)c1nn(CC(=O)N[C@H]2C[C@@](C)(O)C2)c(=O)c2sc(Br)cc12
3. CCOC(=O)c1cnc(NC(=O)Cn2nc(C)c3cc(C4CC4)sc3c2=O)nc1
4. CCc1nn(CC(=O)Nc2ncc(F)cn2)c(=O)c2cn(CC)nc12
5. Cc1nc(NC(=O)Cn2nc(C(C)C)c3cc(C4CC4)ncc3c2=O)ns1
6. Cc1nn(CC(=O)Nc2ccc3nncn3n2)c(=O)c2cc(C3CC3)oc12
7. CCc1nn(CC(=O)Nc2ncco2)c(=O)c2sc(NC)cc12

Ans:
1. 100 to 1000 nM
2. 1000 to 3000 nM
3. 100 to 1000 nM
4. 10000 to 50000 nM
5. 10000 to 50000 nM
6. 100 to 1000 nM
7. 100 to 1000 nM

Hi! Can you tell me IC50 for each of these compounds?
1. Cc1nn(CC(=O)Nc2ccc3nncn3c2)c(=O)c2cc(C3CC3)oc12
2. Cc1cnc(NC(=O)Cn2nc(C)c3oc(C4CC4)cc3c2=O)nc1
3. CC(C)c1nn(CC(=O)Nc2ncccn2)c(=O)c2sc(C3CC3)cc12

Ans:
1. 1000 to 3000 nM
2. 100 to 1000 nM
3. 100 to 1000 nM

Record IC50 per entry; entries follow.
1. Cc1nn(CC(=O)Nc2ncc(C#N)cn2)c(=O)c2cc(C3CC3)oc12
2. CCc1cc2c(C(C)C)nn(CC(=O)Nc3ncc(F)cn3)c(=O)c2s1
3. CC(C)c1nn(CC(=O)N[C@@H]2CCCN(C3CC3)C2)c(=O)c2nn(C)cc12
4. CC(C)c1nn(CC(=O)Nc2ncccn2)c(=O)c2cc(Br)oc12
5. CC(C)c1nn(CC(=O)Nc2ncccn2)c(=O)c2ccc(C3CC3)nc12

Ans:
["100 to 1000 nM", "≤ 100 nM", "10000 to 50000 nM", "100 to 1000 nM", "100 to 1000 nM"]

# map each compound to its IC50
1. CC(C)c1nn(CC(=O)N[C@H]2C[C@@](C)(O)C2)c(=O)c2cc(C3CC3)oc12
2. CC(C)c1nn(CC(=O)Nc2ccc3nncn3n2)c(=O)c2cc(C3CC3)oc12
3. CC(C)c1nn(CC(=O)Nc2ccc3nncn3c2)c(=O)c2cc(C3CC3)oc12

Ans:
1. 100 to 1000 nM
2. 100 to 1000 nM
3. 100 to 1000 nM
